assay explanation: soluble fraction after stress (log2 fold change); higher = more stays soluble; pooled small domains, quantitative proteomics;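 note: 20 min heating vs room temperature control held 20 min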
study conditions: stress: 75 degC
outcome measure: soluble fraction (log2)
Could you respond with only the numeric value?

• HMELADLPSAQIREILAYVYRAPLEKRRDPSIHWLLIAAHKLTLPLLDRLDPADARALGERYGADYP = -0.00148
• HMTVLSKEEFVAIEQRLLQLLGTAPVDNKILLQQLSGIKKEKAWKVLSFLQAENKIGMDATGRVYL = -0.974
• HMVDPWLEQVHRASAAYATAHGSARIPTTHPDLGWKVVRVRQRHRKGLLSDEWVAKFEALPGWTWEPK = -1.52

Please give the documented soluble fraction (log2) of "HMNTLSPVRILAILDGRSSMAEWQLAEELGVSIDNLSEILNKMSTDGQIRLVPSEDGRMVVP"
0.597

====

assay explanation: soluble fraction after stress (log2 fold change); higher = more stays soluble; pooled small domains, quantitative proteomics
study conditions: stress: 75 degC
outcome measure: soluble fraction (log2)
Could you respond with only the numeric value?

Before answering, review these 3 worked examples.
- HMHVLAVDEALHKLTELNELHAKIVEMRFFSGMTVQEVADELGVSKRKIESEWTMIKAWLRKELN: -0.199
- HMEPDEYTVRQAFMKFDVGGEGRVPRDKLKALLETLGLELSAQQVRESEEQLDPEGTGFTSYGDFLMWWN: -0.793
- HMSWAGRRSLAALEARYRDETGISNLKIKHNGVLGYHIEVPSKSADKLMAPDSGFTHRQTLAGAVR: 0.228

Please give the documented soluble fraction (log2) of "HMLSTRERMSSLMAQLQVQQFMPFHRLFTISEGRMGVIVTFLAMMELVKENLIKLIQAQEYGPIHVSLG"
0.467

Please give the documented soluble fraction (log2) of "HMLSLTSRQQEIFDLIKGHIKKTGMPPTRSEIALHFGFRSANSAEEHLRALARKGFIELIPGTSRGIKLIE"
-1.87

Please give the documented soluble fraction (log2) of "HMQDKIWVVDETQLYPKLIEAMSEGKAVIHDGVAYWAEGSGKTGVIQHLPFKETTVQNVEEAIKLAQ"
0.0953

Please give the documented soluble fraction (log2) of "HMVLTSFHDNFPKTGTTYTVRSGDTISGIATKFGSTRDWIQNANEISHPKYLQVGRTLFIPH"
-0.302

Please give the documented soluble fraction (log2) of "HMDSINGEASISRELHGTRFDQAAAILFPEFSRSRLQAWIGAGALTLDGQTARAKDKVTQGQHLVLAAAVE"
-0.54

====

assay explanation: soluble fraction after stress (log2 fold change); higher = more stays soluble; pooled small domains, quantitative proteomics
study conditions: stress: 75 degC
# cutoff -0.3 applies to soluble fraction (log2); >= gives label 1, < gives label 0

* HMNILKAPMPGLILDVIVKESDLVKKGDPVIILEAMKMENILSSPVDGIVKEIKVNPQQTVEKNNTLIKFE | label 1
* HMERDIATKHEVNRTVEAYSDIVKTLNLPSHKINLVEISFFNILKRSKPSPRENSILLGLAQKIKLHLEKK | label 0
* HMTATSKKAAWDEVNKIFPTDYERSAAESERAGYAIFRSTAEGVNAWISDLGDRLEINLPDGKTVNIWIEE | label 1
* HMFNDGEIAIYTDPRGDAGETQIWKRGKGYYGQNDSFDFEAKDKKELEMKLKRWGYVLIAGSIDE | label 0
* HMDAVTPVLSRIRDARFKRMVLPGDEIEISVTLIDTIGKFFNLSGQIRNKDKISLTVNFALALV | label 1

Check the entry "HMSQVHYAVLFKNASAAEATEIVTYARETLGVQDIKINANGDILVPEDKVEEMRVSMSIAGFPK" : does soluble fraction (log2) equal or exceed -0.3?
label 1

Check the entry "HMATTIDFTVGDDVQVMNGPLESFTGKVTELNEASQKVKVDVVMFGRVTNVELDFVQVKKIT" : does soluble fraction (log2) equal or exceed -0.3?
label 0

Check the entry "HMDEMPVEFVKISIKAGHPWENRKIKDLASLPDLLLVLILRGEERIIPNGNTVVLAGDKIVLSALSPE" : does soluble fraction (log2) equal or exceed -0.3?
label 0
